From: PubChem BioAssay AID1963427

Give measured viability, T/C for each item. Keep answers brief.
# Tested on: 317291-083-R-J1-PDC complex spheroid growth
# test: Anticancer human tumor 317291-083-R-J1-PDC patient-derived soft tissue sarcoma cell line growth inhibition [Asc]
# condition-label: second compound 1 µM; first compound 0.1 µM; stronger effect = lower value
Give bare numbers, in %.

Previously resolved entries follow.
Cn1ncnc1[C@H]1c2n[nH]c(=O)c3cc(F)cc(c23)N[C@@H]1c1ccc(F)cc1 + CNC(C)C(=O)NC1CN(S(=O)(=O)c2cccc(S(=O)(=O)N3CCC4CCC(C(=O)NC(c5ccccc5)c5ccccc5)N4C(=O)C(NC(=O)C(C)NC)C3)c2)CCC2CCC(C(=O)NC(c3ccccc3)c3ccccc3)N2C1=O
22.3
CCN1CCN(Cc2ccc(Nc3ncc(F)c(-c4cc(F)c5nc(C)n(C(C)C)c5c4)n3)nc2)CC1 + Cc1c(S(C)(=O)=O)c(-c2cc(F)cc(N3CCN(c4ccc(NS(=O)(=O)c5ccc(NC(CCN6CCC(C(=O)OCCCP(=O)(O)O)CC6)CSc6ccccc6)c(S(=O)(=O)C(F)(F)F)c5)cc4)CC3)c2)c(-c2ccc(Cl)cc2)n1C(C)C
88.2
C=CC(=O)N1CCN(c2nc(=O)n(-c3c(C)ccnc3C(C)C)c3nc(-c4c(O)cccc4F)c(F)cc23)C(C)C1 (stereo not given) + CNC(C)C(=O)NC1CN(S(=O)(=O)c2cccc(S(=O)(=O)N3CCC4CCC(C(=O)NC(c5ccccc5)c5ccccc5)N4C(=O)C(NC(=O)C(C)NC)C3)c2)CCC2CCC(C(=O)NC(c3ccccc3)c3ccccc3)N2C1=O
28.6
O=C(c1cc(Cc2n[nH]c(=O)c3ccccc23)ccc1F)N1CCN(C(=O)C2CC2)CC1 + CNC(C)C(=O)NC1CN(S(=O)(=O)c2cccc(S(=O)(=O)N3CCC4CCC(C(=O)NC(c5ccccc5)c5ccccc5)N4C(=O)C(NC(=O)C(C)NC)C3)c2)CCC2CCC(C(=O)NC(c3ccccc3)c3ccccc3)N2C1=O
47.7
O=C(c1ccc(F)c(F)c1Nc1ccc(I)cc1F)N1CC(O)([C@@H]2CCCCN2)C1 + Cc1c(S(C)(=O)=O)c(-c2cc(F)cc(N3CCN(c4ccc(NS(=O)(=O)c5ccc(NC(CCN6CCC(C(=O)OCCCP(=O)(O)O)CC6)CSc6ccccc6)c(S(=O)(=O)C(F)(F)F)c5)cc4)CC3)c2)c(-c2ccc(Cl)cc2)n1C(C)C
73
COc1c(OCCCN2CCOCC2)ccc2c3n(c(=NC(=O)c4cnc(N)nc4)nc12)CCN3 + Cc1c(S(C)(=O)=O)c(-c2cc(F)cc(N3CCN(c4ccc(NS(=O)(=O)c5ccc(NC(CCN6CCC(C(=O)OCCCP(=O)(O)O)CC6)CSc6ccccc6)c(S(=O)(=O)C(F)(F)F)c5)cc4)CC3)c2)c(-c2ccc(Cl)cc2)n1C(C)C
44.8

Fill in viability, T/C for each of the 4 compounds listed.
1. C=CC(=O)N1CCN(c2nc(=O)n(-c3c(C)ccnc3C(C)C)c3nc(-c4c(O)cccc4F)c(F)cc23)C(C)C1 (stereo not given) + Cc1c(S(C)(=O)=O)c(-c2cc(F)cc(N3CCN(c4ccc(NS(=O)(=O)c5ccc(NC(CCN6CCC(C(=O)OCCCP(=O)(O)O)CC6)CSc6ccccc6)c(S(=O)(=O)C(F)(F)F)c5)cc4)CC3)c2)c(-c2ccc(Cl)cc2)n1C(C)C
2. NC1CCC(NC2CC2c2ccccc2)CC1 (stereo not given) + CNC(C)C(=O)NC1CN(S(=O)(=O)c2cccc(S(=O)(=O)N3CCC4CCC(C(=O)NC(c5ccccc5)c5ccccc5)N4C(=O)C(NC(=O)C(C)NC)C3)c2)CCC2CCC(C(=O)NC(c3ccccc3)c3ccccc3)N2C1=O
3. C#Cc1c(F)ccc2cc(O)cc(-c3ncc4c(N5CC6CCC(C5)N6)nc(OCC56CCCN5CC(F)C6)nc4c3F)c12 (stereo not given) + CNC(C)C(=O)NC1CN(S(=O)(=O)c2cccc(S(=O)(=O)N3CCC4CCC(C(=O)NC(c5ccccc5)c5ccccc5)N4C(=O)C(NC(=O)C(C)NC)C3)c2)CCC2CCC(C(=O)NC(c3ccccc3)c3ccccc3)N2C1=O
4. COc1c(OCCCN2CCOCC2)ccc2c3n(c(=NC(=O)c4cnc(N)nc4)nc12)CCN3 + CNC(C)C(=O)NC1CN(S(=O)(=O)c2cccc(S(=O)(=O)N3CCC4CCC(C(=O)NC(c5ccccc5)c5ccccc5)N4C(=O)C(NC(=O)C(C)NC)C3)c2)CCC2CCC(C(=O)NC(c3ccccc3)c3ccccc3)N2C1=O

Response:
1: 84.3; 2: 36.8; 3: 29; 4: 19.2

###

# System: 317291-083-R-J1-PDC complex spheroid growth
# test: Anticancer human tumor 317291-083-R-J1-PDC cell line growth inhibition [Asc];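 note: compound exposure lasted seven days after spheroids formed for three days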
# condition-label: curve of first compound; second compound 0.1 µM
# From the text: Multicellular complex tumor spheroid response to apoptosis pathway targeting inhibitors Alrizomadlin, Pelcitoclax, and Dasminapant in combination with a variety of drugs and investigational agents in selected tumor cell lines […] Compounds. […] If the clinical Cmax for an agent had not been determined, the highest concentration tested was 10 microM. […]
Kindly supply the reported IC50 values for the records listed here.
Answers are plain numbers, in nM.

O=C(c1ccc(F)c(F)c1Nc1ccc(I)cc1F)N1CC(O)([C@@H]2CCCCN2)C1 + CNC(C)C(=O)NC1CN(S(=O)(=O)c2cccc(S(=O)(=O)N3CCC4CCC(C(=O)NC(c5ccccc5)c5ccccc5)N4C(=O)C(NC(=O)C(C)NC)C3)c2)CCC2CCC(C(=O)NC(c3ccccc3)c3ccccc3)N2C1=O
74.4

Field: next molecule
Request: Look up IC50 for this molecule: O=C(c1ccc(F)c(F)c1Nc1ccc(I)cc1F)N1CC(O)([C@@H]2CCCCN2)C1 + Cc1c(S(C)(=O)=O)c(-c2cc(F)cc(N3CCN(c4ccc(NS(=O)(=O)c5ccc(NC(CCN6CCC(C(=O)OCCCP(=O)(O)O)CC6)CSc6ccccc6)c(S(=O)(=O)C(F)(F)F)c5)cc4)CC3)c2)c(-c2ccc(Cl)cc2)n1C(C)C
Response: 344

###

# System: 317291-083-R-J1-PDC complex spheroid growth
# test: Anticancer human tumor 317291-083-R-J1-PDC cell line growth inhibition [Asc];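 note: compound exposure lasted seven days after spheroids formed for three days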
# condition-label: curve of first compound; second compound 0.316 µM
endpoint: IC50 (nM)
One number for each entry, in nM.

CCN1CCN(Cc2ccc(Nc3ncc(F)c(-c4cc(F)c5nc(C)n(C(C)C)c5c4)n3)nc2)CC1 + Cc1c(S(C)(=O)=O)c(-c2cc(F)cc(N3CCN(c4ccc(NS(=O)(=O)c5ccc(NC(CCN6CCC(C(=O)OCCCP(=O)(O)O)CC6)CSc6ccccc6)c(S(=O)(=O)C(F)(F)F)c5)cc4)CC3)c2)c(-c2ccc(Cl)cc2)n1C(C)C
402
C=CC(=O)N1CCN(c2nc(=O)n(-c3c(C)ccnc3C(C)C)c3nc(-c4c(O)cccc4F)c(F)cc23)C(C)C1 (configuration not stated) + CNC(C)C(=O)NC1CN(S(=O)(=O)c2cccc(S(=O)(=O)N3CCC4CCC(C(=O)NC(c5ccccc5)c5ccccc5)N4C(=O)C(NC(=O)C(C)NC)C3)c2)CCC2CCC(C(=O)NC(c3ccccc3)c3ccccc3)N2C1=O
1090

Request: Lab request: please report IC50 under test system 317291-083-R-J1-PDC complex spheroid growth for NC(=O)C(=Cn1cnc(-c2cc(C(F)(F)F)cc(C(F)(F)F)c2)n1)c1cncnc1 + Cc1c(S(C)(=O)=O)c(-c2cc(F)cc(N3CCN(c4ccc(NS(=O)(=O)c5ccc(NC(CCN6CCC(C(=O)OCCCP(=O)(O)O)CC6)CSc6ccccc6)c(S(=O)(=O)C(F)(F)F)c5)cc4)CC3)c2)c(-c2ccc(Cl)cc2)n1C(C)C
Response: 15.5

###

# Tested on: 317291-083-R-J1-PDC complex spheroid growth
# test: Anticancer human tumor 317291-083-R-J1-PDC cell line growth inhibition [Asc];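 note: compound exposure lasted seven days after spheroids formed for three days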
# condition-label: curve of first compound; second compound 0.0949 µM
Exercise: for every item that follows, state its recorded IC50.
One number for each entry, in µM.

CNC(C)C(=O)NC1CN(S(=O)(=O)c2cccc(S(=O)(=O)N3CCC4CCC(C(=O)NC(c5ccccc5)c5ccccc5)N4C(=O)C(NC(=O)C(C)NC)C3)c2)CCC2CCC(C(=O)NC(c3ccccc3)c3ccccc3)N2C1=O (centres undefined) + CCN1C(C(=O)NC23CCC(C(=O)O)(CC2)CC3)C(c2cccc(Cl)c2F)C2(C(=O)Nc3cc(Cl)ccc32)C12CCCCC2
0.313

Take each entry in turn and give its IC50.
1. C=C(F)C(=O)N1CCN(c2nc(OCC3CCCN3C)nc3c2CCN(c2cccc4cccc(Cl)c24)C3)CC1CC#N (centres undefined) + CCN1C(C(=O)NC23CCC(C(=O)O)(CC2)CC3)C(c2cccc(Cl)c2F)C2(C(=O)Nc3cc(Cl)ccc32)C12CCCCC2
2. NC(=O)C(=Cn1cnc(-c2cc(C(F)(F)F)cc(C(F)(F)F)c2)n1)c1cncnc1 + CCN1C(C(=O)NC23CCC(C(=O)O)(CC2)CC3)C(c2cccc(Cl)c2F)C2(C(=O)Nc3cc(Cl)ccc32)C12CCCCC2

Response:
[3.94, 0.0238]
